Values from patent US20220281825A1

tested on: LASV-p; assay: organism not typed; format: cell-based, Lassa (LASV); conditions: Vero, 24 h, read-out: LASV-p EC50 (nM)
Measured endpoint: EC50 (nM)
Give the value, in units of nM, as a plain number.

Observe how each entry below is paired with its result.
>  <Smiles input>
CC(C)Oc1ccc(-n2cnc3ccc(-c4ccc(C(C)(C)O)cc4)nc32)cc1

>  <Readout unit>
nM

>  <Endpoint result>
1.61

$$$$
>  <Smiles input>
COc1ccc(-c2ccc3ncn(-c4ccc(OC)cc4)c3c2)cc1

>  <Readout unit>
nM

>  <Endpoint result>
7.6

$$$$
>  <Smiles input>
COc1ccc(-n2cnc3ccc(-c4ccc(C(C)=O)cc4)cc32)cc1

>  <Readout unit>
nM

>  <Endpoint result>
7.4

$$$$
>  <Smiles input>
CC(C)Oc1ccc(-n2ccc3ccc(-c4ccc5[nH]ccc5c4)cc32)cc1

>  <Readout unit>
nM

>  <Endpoint result>
12.5

$$$$

input: # input compound: CC(C)Oc1ccc(-c2ccc3ncc(-c4ccc5c(c4)CCO5)n3c2)cc1 ; wanted: its EC50
output: 4.73

====

assay: in vitro; conditions: African green monkey
Measured endpoint: CC50 (µM)
Only the number, expressed in µM, is required.

Reference set, count: 3
>  <Compound>
COc1ccc(-n2cnc3ccc(-c4ccc(C(C)=O)cc4)cc32)cc1 [Example A14]

>  <CC50 (µM)>
1.95

$$$$
>  <Compound>
CC(C)Oc1ccc(-n2cnc3cnc(-c4ccc(C(C)(C)O)cc4)nc32)cc1 [Example B9]

>  <CC50 (µM)>
27.7

$$$$
>  <Compound>
CC(C)Oc1ccc(-n2cnc3ccc(-c4ccc(C(C)(C)O)cc4)cc32)cc1 [Example A17]

>  <CC50 (µM)>
5.81

$$$$

# next compound below
input: What value of CC50 has been reported for the following compound? CC(C)Oc1ccc(-n2cnc3ccc(-c4ccc(N5CCOCC5)cc4)cc32)cc1 [Example A21]
output: 5.22

====

assay: in vivo; details: guinea pig, po, 10 mg/kg
Examples of molecules with documented Tmax follow.
Please state the figure in h; there is no need to write the unit.

>  <Smiles input>
CC(C)Oc1ccc(-c2ccc3ncc(-c4ccc(OC(C)C)cc4)n3c2)cc1

>  <Readout unit>
h

>  <Tmax>
1

$$$$

input: Sample CC(C)Oc1ccc(-n2cnc3ccc(-c4ccc(C(C)(C)O)cc4)cc32)cc1 — what was its Tmax?
output: 1

====

target: hERG channel (Homo sapiens, UniProt Q12809); conditions: pH 7.4
Sequence (Q12809 whole entry): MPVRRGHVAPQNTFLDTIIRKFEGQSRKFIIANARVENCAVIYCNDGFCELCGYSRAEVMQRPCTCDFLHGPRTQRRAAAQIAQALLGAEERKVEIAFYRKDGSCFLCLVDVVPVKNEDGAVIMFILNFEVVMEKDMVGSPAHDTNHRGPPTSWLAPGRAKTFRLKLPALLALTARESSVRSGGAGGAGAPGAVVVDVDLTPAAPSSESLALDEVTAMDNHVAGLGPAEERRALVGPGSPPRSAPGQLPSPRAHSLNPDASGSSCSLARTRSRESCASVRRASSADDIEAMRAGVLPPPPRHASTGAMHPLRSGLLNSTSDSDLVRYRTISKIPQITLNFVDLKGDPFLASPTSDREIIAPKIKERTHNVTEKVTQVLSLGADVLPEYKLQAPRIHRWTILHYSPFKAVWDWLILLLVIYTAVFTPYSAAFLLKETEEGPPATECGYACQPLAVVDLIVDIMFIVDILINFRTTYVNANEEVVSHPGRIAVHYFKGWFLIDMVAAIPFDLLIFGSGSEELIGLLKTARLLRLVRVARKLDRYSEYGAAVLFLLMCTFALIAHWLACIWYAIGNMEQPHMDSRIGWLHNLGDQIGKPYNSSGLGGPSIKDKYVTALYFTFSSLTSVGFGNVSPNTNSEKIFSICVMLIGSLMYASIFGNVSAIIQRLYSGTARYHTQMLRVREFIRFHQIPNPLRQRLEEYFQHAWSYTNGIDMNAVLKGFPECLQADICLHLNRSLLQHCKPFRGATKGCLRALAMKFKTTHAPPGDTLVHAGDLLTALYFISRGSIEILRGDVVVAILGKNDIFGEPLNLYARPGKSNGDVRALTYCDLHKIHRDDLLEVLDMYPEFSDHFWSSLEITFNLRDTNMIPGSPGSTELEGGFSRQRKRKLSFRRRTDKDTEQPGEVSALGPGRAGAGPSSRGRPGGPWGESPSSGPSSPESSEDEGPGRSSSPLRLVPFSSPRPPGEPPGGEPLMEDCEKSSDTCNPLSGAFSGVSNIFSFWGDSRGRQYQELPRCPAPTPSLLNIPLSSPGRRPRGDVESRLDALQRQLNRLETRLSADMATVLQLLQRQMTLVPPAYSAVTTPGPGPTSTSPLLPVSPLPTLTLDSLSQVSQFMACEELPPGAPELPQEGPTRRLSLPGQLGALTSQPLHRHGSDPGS
Measured endpoint: hERG % Inhibition

Example entries and their recorded answers appear below.
>  <Smiles input>
CC(C)Oc1ccc(-c2ccc3ncn(-c4ccc(OC(C)C)cc4)c3n2)cc1

>  <Endpoint result>
<10%

$$$$
>  <Smiles input>
Cc1cc2nnn(-c3ccc(OC(C)C)cc3)c2cc1-c1ccc(OC(C)C)cc1

>  <Endpoint result>
<10%

$$$$
>  <Smiles input>
Cc1cc2ncn(-c3ccc(OC(C)C)cc3)c2cc1-c1ccc(OC(C)C)cc1

>  <Endpoint result>
<10%

$$$$
>  <Smiles input>
CC(C)Oc1ccc(-c2ccc3nnn(-c4ccc(OC(C)C)cc4)c3c2)cc1

>  <Endpoint result>
17%

$$$$
>  <Smiles input>
CC(C)Oc1ccc(-c2cnc3ccc(-c4ccc(C(C)(C)O)cc4)cn23)cc1

>  <Endpoint result>
55%

$$$$

input: Which measured hERG % Inhibition belongs to CC(C)Oc1ccc(-c2ccc3ncc(-c4ccc(OC(C)C)cc4)n3c2)cc1 , tested on hERG channel (Homo sapiens, UniProt Q12809)?
output: 89%

input: Recorded hERG % Inhibition for COc1cc2ncn(-c3ccc(OC(C)C)cc3)c2cc1-c1ccc(OC(C)C)cc1 with hERG channel (Homo sapiens, UniProt Q12809), please?
output: <10%

input: I'm curious: which hERG % Inhibition was measured for Cc1c(-c2ccc(OC(C)C)cc2)ccc2ncc(-c3ccc(OC(C)C)cc3)n12 tested on hERG channel (Homo sapiens, UniProt Q12809)?
output: 49%

====

Reported values of Cmax for individual entries
assay: in vivo; settings: guinea pig, po, 10 mg/kg
Express your answer in ng/mL, writing the number without its unit.

>  <Smiles input>
CC(C)Oc1ccc(-c2ccc3ncc(-c4ccc(OC(C)C)cc4)n3c2)cc1

>  <Measured endpoint>
Cmax

>  <Readout unit>
ng/mL

>  <Endpoint result>
156

$$$$

Alright, here's another compound for you.
input: I have this compound here, CC(C)Oc1ccc(-n2cnc3ccc(-c4ccc(C(C)(C)O)cc4)cc32)cc1 , and I need its recorded Cmax.
output: 639

====

Catalogue of compounds with associated log10 of CC50
assay: in vitro; conditions: African green monkey
Form field - Quantity: CC50; Unit: µM; Scale: log10

Consider the worked cases shown below.
>  <Compound>
COCCOc1ccc(-c2cnc3ccc(-c4ccc(OC(C)C)cc4)cn23)cc1 [Example C42]

>  <Endpoint result>
0.73

$$$$
>  <Compound>
CC(C)Oc1ccc(-c2cnc3ccc(-c4ccc(C(F)F)cc4)cn23)cc1 [Example C5]

>  <Endpoint result>
0.67

$$$$
>  <Compound>
Cc1cc2ncn(-c3ccc(OC(C)C)cc3)c2cc1-c1ccc(OC(C)C)cc1 [Example A30]

>  <Endpoint result>
0.56

$$$$
>  <Compound>
CC(C)Oc1ccc(-c2nnc3ccc(-c4ccc5[nH]ccc5c4)cn23)cc1 [Example D7]

>  <Endpoint result>
0.27

$$$$
>  <Compound>
COc1ccc(-n2cnc3ccc(-c4ccc(C(C)(C)O)cc4)cc32)cc1 [Example A8]

>  <Endpoint result>
0.98

$$$$
>  <Compound>
CC(C)Oc1ccc(-c2cnc3ccc(-c4ccc5cc[nH]c5c4)cn23)cc1 [Example C11]

>  <Endpoint result>
1.40

$$$$

input: Fill blank: measured log10 of CC50 of the compound COc1ccc(-n2cnc3ccc(-c4ccc(N(C)C)cc4)cc32)cc1 [Example A7] is ____.
output: 0.60

input: What value of log10 of CC50 has been recorded for this entry: CC(=O)c1ccc(-c2ccc3cnn(-c4ccc(OC(C)C)cc4)c3c2)cc1 [Example D3]
output: 1.20

====

system: LASV-p; assay: organism not typed; format: cell-based, Lassa (LASV); settings: Vero, 24 h, read-out: LASV-p EC50 (nM)
Measured endpoint: log10 EC50 (log10 of the value in nM)
Form field - Quantity: EC50; Unit: nM; Scale: log10

Below are worked cases with known answers.
>  <Molecule>
CC(C)Oc1ccc(-c2ccc3nc(C#N)c(-c4ccc(OC(C)C)cc4)n3c2)cc1

>  <Assayed system>
LASV-p

>  <log10 EC50>
1.44

$$$$
>  <Molecule>
CC(C)Oc1ccc(-c2ccc3ncc(-c4ccc(C5(O)CC5)cc4)n3c2)cc1

>  <Assayed system>
LASV-p

>  <log10 EC50>
-0.64

$$$$
>  <Molecule>
CC(C)Oc1ccc(-c2ccc3ncc(-c4ccc(C5CC5)cc4)n3c2)cc1

>  <Assayed system>
LASV-p

>  <log10 EC50>
0.01

$$$$

input: Param item = CC(=O)c1ccc(-c2ccc3nnn(-c4ccc(OC(C)C)cc4)c3c2)cc1 ; retrieve measured log10 EC50.
output: 0.02

input: Would you mind telling me what log10 EC50 value was observed for CC(C)Oc1ccc(-n2nnc3ccc(-c4ccc5[nH]ccc5c4)cc32)cc1 ?
output: 0.18

input: Look at this molecule and give its reported log10 EC50. CC(C)Oc1ccc(-n2ncc3ccc(-c4ccc5[nH]ccc5c4)cc32)cc1 [Example D2]
output: 0.90

====

# maps each entry to its EC50
system: JUNV-p; assay: organism not typed; format: cell-based, Junin (JUNV); details: Vero, 24 h, read-out: JUNV-p EC50 (nM)
Please give a number only; it is taken to be in nM.

>  <Smiles input>
CC(C)Oc1ccc(-c2ccc3noc(-c4ccc(OC(C)C)cc4)c3c2)cc1

>  <Measured endpoint>
EC50

>  <Readout unit>
nM

>  <Endpoint result>
5.58

$$$$

As a next step, examine the compound that follows.
input: Param item = CC(C)Oc1ccc(-c2ccc3ncc(-c4ccc5c(c4)CCO5)n3c2)cc1 ; retrieve measured EC50.
output: 3.68

====

Overview of recorded log10 of EC50 for various compounds
system: JUNV-p; test: organism not typed; format: cell-based, Junin (JUNV); settings: Vero, 24 h, read-out: JUNV-p EC50 (nM)
Record value = log10 of EC50 given in nM.

input: Return reported log10 of EC50; argument: COc1ccc(-n2cnc3ccc(-c4ccc(N5CCCCC5)cc4)cc32)cc1
output: 0.35

input: Quick one: log10 of EC50 for CC(C)Oc1ccc(-n2cnc3ccc(-c4ccc(C(C)(C)O)cc4)cc32)cc1 ?
output: -0.70

====

settings: 1 h, pH 7.4
Measured endpoint: Percent parent compound remaining at 60 minutes in liver microsomes, Rat
Param answer (str): number followed by unit.

>  <Smiles input>
CC(C)Oc1ccc(-n2cnc3ccc(-c4ccc5[nH]ccc5c4)cc32)cc1

>  <Endpoint result>
32%

$$$$

input: What value of Percent parent compound remaining at 60 minutes in liver microsomes, Rat has been recorded for this entry: CC(C)Oc1ccc(-n2cnc3ccc(-c4ccc(C(C)(C)O)cc4)cc32)cc1
output: 86%

input: Using the record for CC(C)Oc1ccc(-c2cnc3ccc(-c4ccc(C(C)(C)O)cc4)cn23)cc1 , report its Percent parent compound remaining at 60 minutes in liver microsomes, Rat.
output: 77%

input: Give its Percent parent compound remaining at 60 minutes in liver microsomes, Rat value. Item: Cc1c(-c2ccc(OC(C)C)cc2)ccc2ncc(-c3ccc(OC(C)C)cc3)n12
output: 75%
